Consider the following substances; for each one, report its Fold Induction (ligand induced β-galactosidase activity).
TESTED_ON: estrogen receptor (ER) α (Homo sapiens, UniProt P03372)
Construct: expressed in transfected cells; host or cells: Saccharomyces cerevisiae PJ69-α
Sequence (P03372 1-595): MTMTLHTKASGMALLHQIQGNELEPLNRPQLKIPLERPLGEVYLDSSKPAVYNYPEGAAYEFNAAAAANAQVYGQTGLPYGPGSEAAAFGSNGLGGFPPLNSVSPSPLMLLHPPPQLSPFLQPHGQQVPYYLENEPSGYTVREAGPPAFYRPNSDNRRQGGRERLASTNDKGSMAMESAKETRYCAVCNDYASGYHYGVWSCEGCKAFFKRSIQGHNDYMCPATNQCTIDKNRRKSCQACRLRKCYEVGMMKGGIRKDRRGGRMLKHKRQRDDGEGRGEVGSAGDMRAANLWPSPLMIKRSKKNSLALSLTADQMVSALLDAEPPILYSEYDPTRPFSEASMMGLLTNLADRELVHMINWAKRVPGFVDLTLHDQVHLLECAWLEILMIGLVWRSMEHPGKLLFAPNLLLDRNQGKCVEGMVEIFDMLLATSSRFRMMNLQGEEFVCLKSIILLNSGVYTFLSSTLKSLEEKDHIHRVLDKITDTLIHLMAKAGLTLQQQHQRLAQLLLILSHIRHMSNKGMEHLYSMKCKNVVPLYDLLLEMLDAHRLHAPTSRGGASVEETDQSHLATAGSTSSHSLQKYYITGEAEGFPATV
ASSAY_EXPLANATION: Yeast two-hybrid screening of LXXLL peptide library, ligand induced β-galactosidase activity (FIG. 1, Table 501)
Format: cell-based
SETUP_CONDITIONS: with and without estradiol
Answers are plain numbers.

EFTSVSRLVTLLLQ* [B1G8] : 6
EFGCSAILRYLLRSPRDLDLQPS* [B5A2] : 2.5
EFSPPSSLLALLLGGKSLEPLPIRYKNVKRQFTSNSRGSVDLQPS [B5H10] : 4.5

For every record below, what is its Fold Induction (ligand induced β-galactosidase activity)?
1. EFCPVGLLVHLLMQ* [B1A1]
2. EFFRATHLLRLLRTDSALDLQPS* [B6F3]

1: 11; 2: 3

For every record below, what is its Fold Induction (ligand induced β-galactosidase activity)?
1. EFTGSRLLLKLLRFPDSSTCSQA [B6A1]
2. EFSGVPILHMLLMLPSSLDLQOPS* [B4F6]
3. EFGGSVLLRELLCCYDALEPTTTR [B3E2]
4. EFFRLRRLDRLLQDSFLLDLQPS* [B2G1]

3.5
5
3
12

---

TESTED_ON: androgen receptor (Homo sapiens, UniProt P10275)
ASSAY_EXPLANATION: Yeast two-hybrid screening of unbiased X15 peptide library, ligand induced β-galactosidase activity (FIG. 3, Table 503)
Format: cell-based
Set-up: expressed in transfected cells; host or cells: Saccharomyces cerevisiae PJ69-4α
SETUP_CONDITIONS: untitled table before Table 503; values match DHT / No Lig of Table 503
ASSAY_METRIC: Fold induction
Give bare numbers.

EFQQCMCAEVKSWLGGSLDLQPS* [B8E9] : 4
EFVNWDAVVPWSELVALLDLOPS [B8A10] : 1
EFRQSFVSEILGGGWLPLDLOPS [M2H3] : 10

With those in mind, consider the next substance.
Short answer on androgen receptor (Homo sapiens, UniProt P10275) for EFHSRLRVEVVSWGIGSTCSQANSGRISYDL* [B8H3] , Fold induction: 22

---

TESTED_ON: androgen receptor (Homo sapiens)
Sequence (P10275 1-920): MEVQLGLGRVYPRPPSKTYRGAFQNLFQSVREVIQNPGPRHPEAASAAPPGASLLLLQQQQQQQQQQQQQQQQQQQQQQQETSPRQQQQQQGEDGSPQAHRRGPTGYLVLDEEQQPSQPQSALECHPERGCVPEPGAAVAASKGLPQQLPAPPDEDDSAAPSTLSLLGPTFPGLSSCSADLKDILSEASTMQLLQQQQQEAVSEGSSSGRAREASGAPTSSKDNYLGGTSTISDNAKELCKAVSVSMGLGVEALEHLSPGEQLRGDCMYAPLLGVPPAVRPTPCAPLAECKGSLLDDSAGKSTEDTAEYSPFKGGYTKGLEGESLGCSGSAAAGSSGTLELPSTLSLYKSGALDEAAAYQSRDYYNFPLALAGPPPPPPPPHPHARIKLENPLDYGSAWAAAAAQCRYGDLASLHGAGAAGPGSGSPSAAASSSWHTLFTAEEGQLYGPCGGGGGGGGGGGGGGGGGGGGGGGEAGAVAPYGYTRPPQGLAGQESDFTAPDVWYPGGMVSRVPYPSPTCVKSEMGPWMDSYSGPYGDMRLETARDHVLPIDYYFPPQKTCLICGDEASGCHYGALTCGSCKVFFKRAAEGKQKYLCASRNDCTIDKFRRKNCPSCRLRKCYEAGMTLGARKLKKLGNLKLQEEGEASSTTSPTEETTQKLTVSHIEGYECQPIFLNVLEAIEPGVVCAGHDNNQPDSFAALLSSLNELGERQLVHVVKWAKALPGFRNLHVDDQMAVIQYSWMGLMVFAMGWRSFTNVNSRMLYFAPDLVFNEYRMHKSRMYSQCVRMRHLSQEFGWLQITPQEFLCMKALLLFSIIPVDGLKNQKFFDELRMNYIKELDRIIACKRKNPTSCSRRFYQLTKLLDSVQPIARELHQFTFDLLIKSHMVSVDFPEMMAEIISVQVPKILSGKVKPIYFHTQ
ASSAY_EXPLANATION: Yeast two-hybrid screening of unbiased X15 peptide library, ligand induced β-galactosidase activity (FIG. 3, Table 503)
Type: cell-based
Set-up: expressed in transfected cells; host or cells: Saccharomyces cerevisiae PJ69-4α; unit not given here
SETUP_CONDITIONS: yeast two-hybrid, ligand RU
Consider the following substances; for each one, report its ligand induced β-galactosidase activity, RU.

Below: 5 substances and their reported ligand induced β-galactosidase activity, RU.
EFQQCMCAEVKSWLGGSLDLQPS* [B8E9] : 0.8
EFPELLAMTRWGRHAALLEPQRLPPPRTTTQPQTEFERMFFFTRPMRTTGLLDLQPS [B2A7] : 0.5
EFRQSFVSEILGGGWLPLDLOPS [M2H3] : 6.8
EFRFPFHEMVREWESMGLERVRYAEP [M4D1] : 0.1
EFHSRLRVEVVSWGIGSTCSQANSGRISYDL* [B8H3] : −0.0

For every record below, what is its ligand induced β-galactosidase activity, RU?
1. EFVNWDAVVPWSELVALLDLOPS [B8A10]
2. EFRSSVFEQMYLCTGGSLDLQPS* [B5G11]

0.4
0.9
